The reported numbers originate from ChEMBL document CHEMBL3603753.

Molecular target: UniProtKB P22303
Sequence (P22303 whole entry): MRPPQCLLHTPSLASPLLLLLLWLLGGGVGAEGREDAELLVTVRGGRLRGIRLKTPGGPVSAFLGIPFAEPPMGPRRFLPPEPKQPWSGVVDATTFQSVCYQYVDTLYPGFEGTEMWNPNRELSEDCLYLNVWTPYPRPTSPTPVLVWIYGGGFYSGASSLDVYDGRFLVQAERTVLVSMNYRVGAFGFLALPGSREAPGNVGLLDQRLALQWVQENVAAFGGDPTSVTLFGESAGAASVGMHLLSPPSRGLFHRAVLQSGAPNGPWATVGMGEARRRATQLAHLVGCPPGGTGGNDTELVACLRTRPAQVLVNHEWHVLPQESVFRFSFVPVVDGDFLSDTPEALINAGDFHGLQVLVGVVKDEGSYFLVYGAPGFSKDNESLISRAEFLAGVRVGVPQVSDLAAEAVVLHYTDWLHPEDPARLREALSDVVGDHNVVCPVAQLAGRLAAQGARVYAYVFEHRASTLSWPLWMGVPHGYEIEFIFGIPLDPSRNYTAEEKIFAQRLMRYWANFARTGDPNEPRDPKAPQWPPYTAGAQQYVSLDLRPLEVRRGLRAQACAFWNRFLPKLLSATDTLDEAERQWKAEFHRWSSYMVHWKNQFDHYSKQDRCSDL
measured-quantity: IC50 (µM)
Just the number please, in µM, no unit attached.

Suppose we examine the compound "CSc1nc(-c2ccc(OC(F)(F)F)cc2)nn1C(=O)N(C)C" ; what IC50 value has been reported?
200

====

// solubility kinetic lookup, one value per entry
Assay: Kinetic solubility of the compound by chemoluminescent nitrogen detection kinetic solubility assay
Assay type: physicochemical
Conditions: read-out: Kinetic_solubility
Hi! Could you send only the number? It should be in µM, unit omitted.

CN(Cc1ccc(C(C)(C)C)cc1)C(=O)n1cnc(S(=O)(=O)[C@@H]2C[C@H]3CC[C@@H]2C3)n1; 28

Attention now shifts to the item below.
// returns reported solubility kinetic for input "COc1ccc(CN(C)C(=O)n2cnc(S(=O)(=O)[C@@H]3C[C@H]4CC[C@@H]3C4)n2)cc1"
125
